Values were extracted from patent US10058587B2.

Provide the recorded solubility for the entries that follow.
assayText: Solubility (aqueous)
measurementParameters: aqueous
Where no end group is shown, it is not given here.

Name the recorded solubility of the sequence listed here: EGKLSSNDTEGGLCKEFLHPSKVDLPR [SorC27]
> 200 mg/mL

Report solubility, nothing else, for this sequence: KEFLHPSKVDLPR [SorC13, KEFLHPSKVDLPR]
> 200 mg/mL

----------
assayText: Degradation rate in human plasma (HPLC)
Assay type: in vitro ADME
measurementParameters: human, plasma; 37° C.
Method: Rat plasma was obtained from blood taken from sacrificed rats (Sprague-Dawley) and placed into heparinized glass vials to prevent clotting. Whole blood was centrifuged at 8000×g for 5 minutes to spin down the cells leaving the plasma as supernatant. […] The rat plasma degradation rate was determined for the plasma from three different rats, while the rate of degradation in human plasma used six separate plasma samples. […]
Where no end group is shown, it is not given here.
outcomeMeasure: half-life (min)
Quick note: give the figure in min, leave out the unit.

Indicate its recorded half-life; the sequence in question is KEFLHPSKVDLPR [SorC13, KEFLHPSKVDLPR]
56.6

Provide only the value of recorded half-life for EGKLSSNDTEGGLCKEFLHPSKVDLPR [SorC27]
20

----------
assayText: Degradation rate in rat plasma (HPLC)
Format: in vitro ADME
measurementParameters: rat plasma
Bridges are numbered along the chain shown (N, C = ends). Where no end group is shown, it is not given here.
outcomeMeasure: half-life

Please look at this sequence and report its half-life: DCSQDCAACSILARPAELNTETCILECEGKLSSNDTEGGLCKEFLHPSKVDLPR (disulfide 2-23, 6-27, 9-41) [Sor54, soricidin, reference compound]
> 30 h

----------
assayText: Degradation rate in human plasma (HPLC)
Type: in vitro ADME
measurementParameters: human plasma
Bridges are numbered along the chain shown (N, C = ends). Where no end group is shown, it is not given here.
outcomeMeasure: half-life

Please look at this sequence and report its half-life: DCSQDCAACSILARPAELNTETCILECEGKLSSNDTEGGLCKEFLHPSKVDLPR (disulfide 2-23, 6-27, 9-41) [Sor54, soricidin, reference compound]
> 30 h
